biological target: cloned dopamine receptor subtype 3 (Rattus norvegicus, UniProt P19020); construct: purchased Signal Screen; host or cells: Sf9 cells; test: Radioligand binding to D3 receptor (transfected Sf9 cell membranes, 3H-7-OH-DPAT)
Sequence (P19020 whole entry): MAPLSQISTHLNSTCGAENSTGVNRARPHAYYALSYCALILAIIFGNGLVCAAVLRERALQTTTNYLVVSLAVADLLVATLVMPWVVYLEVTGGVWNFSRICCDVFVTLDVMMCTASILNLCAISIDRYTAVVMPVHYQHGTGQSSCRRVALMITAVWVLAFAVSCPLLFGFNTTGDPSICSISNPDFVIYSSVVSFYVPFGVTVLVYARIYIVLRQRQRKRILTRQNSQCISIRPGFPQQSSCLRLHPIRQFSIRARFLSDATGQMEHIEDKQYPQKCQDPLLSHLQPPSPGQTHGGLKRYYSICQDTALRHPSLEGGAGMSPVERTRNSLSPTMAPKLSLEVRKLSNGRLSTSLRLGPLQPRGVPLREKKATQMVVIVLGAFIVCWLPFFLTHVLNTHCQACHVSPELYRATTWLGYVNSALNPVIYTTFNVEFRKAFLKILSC
parameter: Ki
Remember to put the unit after the number in your answer.

Ask: Requested read-out: Ki. Entry: CN1CCN(C2=Cc3ccccc3Cn3cccc32)CC1
Reply: 224 nM

----------
target: D1 receptor (Rattus norvegicus); conditions: read-out: D1 (Ki: nM); striate; [3H]-SCH 23390
Sequence (P18901 whole entry): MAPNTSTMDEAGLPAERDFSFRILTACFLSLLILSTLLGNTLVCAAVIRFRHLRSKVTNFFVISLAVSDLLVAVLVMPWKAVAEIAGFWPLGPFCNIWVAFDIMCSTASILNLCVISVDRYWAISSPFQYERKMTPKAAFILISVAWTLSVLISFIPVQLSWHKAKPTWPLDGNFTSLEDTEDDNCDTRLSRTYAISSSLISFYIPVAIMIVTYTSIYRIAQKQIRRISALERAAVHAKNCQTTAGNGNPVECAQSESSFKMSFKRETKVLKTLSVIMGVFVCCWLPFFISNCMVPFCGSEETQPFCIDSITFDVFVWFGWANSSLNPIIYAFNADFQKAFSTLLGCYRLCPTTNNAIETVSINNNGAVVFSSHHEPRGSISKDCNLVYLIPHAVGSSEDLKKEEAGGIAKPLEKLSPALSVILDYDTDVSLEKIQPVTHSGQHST
parameter: Ki (nM)
Enter your answer as a number in nM; do not include the unit.

Ask: Requested read-out: Ki. Entry: CN1CCN(C2=Cc3ccccc3Cn3cccc32)CC1 [ST2329]
Reply: 125
